# ASSAY SYSTEM: HLA-A*69:01
# ASSAY PROCEDURE: IEDB peptide-MHC binding, purified MHC/direct/fluorescence; filed as Kd, often an IC50 or EC50 that approximates it; bounds were set here for any values at or beyond the usual limits of such assays
# EXPERIMENTAL PARAMETERS: source organism: Burkholderia mallei ATCC 23344
pKd: −log10 of the molar value.
MEASURED ATTRIBUTE: pKd

{"QUERY SEQUENCE": "LARFPCNVI", "OBS VALUE": "≤ 4.70"}

----------
# ASSAY SYSTEM: HLA-A*02:03
# ASSAY PROCEDURE: IEDB peptide-MHC binding, purified MHC/competitive/radioactivity; filed as Kd, often an IC50 or EC50 that approximates it; bounds were set here for any values at or beyond the usual limits of such assays
# EXPERIMENTAL PARAMETERS: source organism: Trypanosoma cruzi

{"QUERY SEQUENCE": "FVNHRFTLV", "Kd": "1.38 nM"}
{"QUERY SEQUENCE": "GLLPSLLLLG", "Kd": "137 nM"}

----------
# ASSAY SYSTEM: HLA-B*57:01
# ASSAY PROCEDURE: IEDB peptide-MHC binding, purified MHC/competitive/fluorescence; filed as Kd, often an IC50 or EC50 that approximates it; bounds were set here for any values at or beyond the usual limits of such assays
# EXPERIMENTAL PARAMETERS: source organism: Macaca mulatta

{"QUERY SEQUENCE": "SAEVVTLWY", "Kd": "≥ 20 µM"}

----------
# ASSAY SYSTEM: HLA-B*40:01
# ASSAY PROCEDURE: IEDB peptide-MHC binding, purified MHC/direct/fluorescence; filed as Kd, often an IC50 or EC50 that approximates it; bounds were set here for any values at or beyond the usual limits of such assays
# EXPERIMENTAL PARAMETERS: source organism: Sudan ebolavirus - Maleo (1979)
MEASURED ATTRIBUTE: Kd

{"QUERY SEQUENCE": "MHYKLDEVL", "OBS VALUE": "≥ 20 µM"}

----------
# ASSAY SYSTEM: HLA-A*02:02
# ASSAY PROCEDURE: IEDB peptide-MHC binding, purified MHC/competitive/radioactivity; filed as Kd, often an IC50 or EC50 that approximates it; bounds were set here for any values at or beyond the usual limits of such assays
# EXPERIMENTAL PARAMETERS: source organism: Mammarenavirus juninense

{"QUERY SEQUENCE": "YCNYTKFWYV", "UNITS OF MEASURE": "nM", "Kd": 322}

----------
# ASSAY SYSTEM: HLA-A*03:01
# ASSAY PROCEDURE: IEDB peptide-MHC binding, purified MHC/direct/fluorescence; filed as Kd, often an IC50 or EC50 that approximates it; bounds were set here for any values at or beyond the usual limits of such assays
# EXPERIMENTAL PARAMETERS: source organism: Haemophilus influenzae
pKd: −log10 of the molar value.

{"QUERY SEQUENCE": "LAEQFSGEY", "pKd": "≤ 4.70"}

----------
Below is a list of entries, each paired with its recorded pKd value.
# ASSAY SYSTEM: HLA-A*02:06
# ASSAY PROCEDURE: IEDB peptide-MHC binding, purified MHC/competitive/radioactivity; filed as Kd, often an IC50 or EC50 that approximates it; bounds were set here for any values at or beyond the usual limits of such assays
# EXPERIMENTAL PARAMETERS: source organism: Vaccinia virus Copenhagen
pKd: −log10 of the molar value.

{"QUERY SEQUENCE": "LIAGIILLI", "pKd": 5.09}
{"QUERY SEQUENCE": "KLYIALCKV", "pKd": 7.01}
